# procedure_text: chemical genetic growth profiling, strain panel (AID 1159580);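 further: tested at 20 µM; growth read once vehicle control cultures reached saturation at 30 °C; 1 = growth at the plate median or of vehicle wells; lower values mean less growth of the strain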
# measurement_context: S. cerevisiae deletion strains, growth OD, locus YGR252W, strain gcn5, active compounds read low
The campaign covered roughly 5,500 compounds. About 2,000 (36%) were called active. About 18% were inconclusive and are not listed. The list shows a part of the results.
quantity_kind: normalized growth
One number for each entry.

CC(NC(C)(C)C)C(=O)c1cccc(Cl)c1 (stereo not drawn) : 0.989
O=C(c1ccccc1)c1ccc2n1CCC2C(=O)O (stereo not drawn) : 0.996

Q) Record request: normalized growth value, item C[N+]12CCC(CC1)C(OC(=O)C(O)(c1ccccc1)c1ccccc1)C2 (stereo not drawn)
A) 1.09
